# Tail immersion time, Day 4 listing for each entry below
Test system: Oxaliplatin induced peripheral neuropathy in rat
Assay: Cold hyperalgesia method (tail immersion test), oxaliplatin induced peripheral neuropathy
Assay type: in vivo, Wistar
Details: Table 3; groups named by human effective dose/day; Day 4
The reply should be a number, written without any unit.

Worked set:
O=c1c(-c2ccc(O)cc2)coc2cc(O)ccc12 [Daidzein]; 8.28
CCCCCCCCCCCCCCCC(=O)NCCO [PEA, Palmitoylethanolamide]; 11.15
CC(C)C[C@H](CN)CC(=O)O [Pregabalin, reference compound]; 19.25

Turning now to a further record.
Q: Any idea what Tail immersion time, Day 4 was measured for O=c1c(-c2ccc(O)cc2)coc2cc(O)cc(O)c12 [Genistein] ?
A: 7.52

----------
Test system: Oxaliplatin induced peripheral neuropathy in rat
Experiment: Cold hyperalgesia method (tail immersion test), oxaliplatin induced peripheral neuropathy
Format: in vivo, Wistar
Conditions: Table 3; groups named by human effective dose/day
Quantity Kind: % (Day 4 relative to 20.00) (%)
Answer format: numeric, % implied, no suffix.

Check out these entries, answers already filled in.
CCCCCCCCCCCCCCCC(=O)NCCO [PEA, Palmitoylethanolamide]; 55.73
O=c1c(-c2ccc(O)cc2)coc2cc(O)cc(O)c12; 37.58
O=c1c(-c2ccc(O)cc2)coc2cc(O)ccc12; 41.38

Query molecule follows.
Q: Query: % (Day 4 relative to 20.00); subject: CC(C)C[C@H](CN)CC(=O)O [Pregabalin, reference compound]
A: 96.27

----------
Documented Duration of tail immersion, Animal Mark 5 across a set of molecules
Tested on: Oxaliplatin induced peripheral neuropathy in rat
Assay: Cold hyperalgesia method (tail immersion test), oxaliplatin induced peripheral neuropathy
Type: in vivo, Wistar
Details: rat; p.o. Day 1-3 at doses of Table 1; 24 hrs after oxaliplatin 12 mg/kg i.p.; cut-off 20 seconds
Method: Example 21—Animal Study—Screening effect of synergistic combination or composition/formulation comprising PEA and other natural ingredients against Oxaliplatin induced peripheral neuropathy in rat. • Species: Rat (Rattus norvegicus); • Strain: Wistar; Sex: Male/Female • No. of animals: 54 Animals (n=6 per group) • Animal House conditions: • Lighting: 12/12 hour light-dark cycle • Temperature: 25±2° C. • Relative Humidity: 30 to 70% • Temperature and relative humidity were recorded Thrice daily. […]
API: value field is a number in s; no unit string.

Some solved cases for reference:
O=c1c(-c2ccc(O)cc2)coc2cc(O)cc(O)c12; 7.68
CC(C)C[C@H](CN)CC(=O)O [Pregabalin, reference compound]; 18.37
CCCCCCCCCCCCCCCC(=O)NCCO [PEA, Palmitoylethanolamide]; 11.44

In the following, a different molecule is considered.
Q: Quick check: Duration of tail immersion, Animal Mark 5 of `O=c1c(-c2ccc(O)cc2)coc2cc(O)ccc12` ?
A: 8.12
